From: the supplement of paper PMC6555819

System: PPARg DBDmut IVT, anti-PPARg (DBD mutation: PPARg1 K132A/R137A, NR concentration 270 nM)
Assay: PBM binding z-score (relative to random genomic background probes); higher = stronger binding; sequences stand for … in GC…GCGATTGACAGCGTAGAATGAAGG
MEASURE: PBM binding z-score
Output spec: single numeric token, no unit.

>>> df
                      sequence_record                            assayed_target              measure      value
0  GATACAGGGTAAAGGCCAGAGTACGCGTATTGAT  PPARg DBDmut IVT, anti-PPARg (DBD mutation: PPARg1 K132A/R137A, NR concentration 270 nM)  PBM binding z-score  -0.000144
1  TCTTGTAGATCATTAGAGGTTAAGAAAGTGCGCT  PPARg DBDmut IVT, anti-PPARg (DBD mutation: PPARg1 K132A/R137A, NR concentration 270 nM)  PBM binding z-score      0.793
2  TCTTGTAGATCAAAGGTTCAGAAAGCCGAAGCCT  PPARg DBDmut IVT, anti-PPARg (DBD mutation: PPARg1 K132A/R137A, NR concentration 270 nM)  PBM binding z-score      0.203

GET PBM binding z-score where system = PPARg DBDmut IVT, anti-PPARg (DBD mutation: PPARg1 K132A/R137A, NR concentration 270 nM) and item = `TAGCCTAGGTGAGATCGGGCCAGTATACGCTATA`
-1.25

Output reported PBM binding z-score of the sequence `CGTCCAAGGTCATAGGAGGTAAGTGAAGACAGAT` on PPARg DBDmut IVT, anti-PPARg (DBD mutation: PPARg1 K132A/R137A, NR concentration 270 nM).
0.602

Report measured PBM binding z-score on PPARg DBDmut IVT, anti-PPARg (DBD mutation: PPARg1 K132A/R137A, NR concentration 270 nM); entry: `TGTCATAGTTCAAAGGTAACGTAAGTATCCACAC`
1.83

====

System: LXRa:RXRa (NR concentration 270 nM, RXRa partner concentration 90 nM)
Test: PBM binding z-score (relative to random genomic background probes); higher = stronger binding; sequences stand for … in GC…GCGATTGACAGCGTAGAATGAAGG
I'd appreciate it if you could label each record using PBM binding z-score and these ranges: bin 1: < 0.9; bin 2: ≥ 0.9 and < 2; bin 3: ≥ 2

Example cases with answers are listed next.
>>> print(df.to_string())
                      sequence_record  class_name
0  TCTTGTAGATCTATAGAGGTTAAGAAAGTGCGCT       bin 3
1  TAGCCTAGGTCAGATCGGGTCAGTATACGCTATA       bin 3
2  ATATGTAGGTTATCGGGTCGTTCAGTTTGCGCAT       bin 2

Consider `GGAACGAGGGCAAGTTGATACCAGAGTTTGATGG` . To which PBM binding z-score class does it belong?
bin 1

Each sequence maps to one class by PBM binding z-score. Which class for `ACAGACAGATGAGTGAAGGTAACTCAGCTGGACG` ?
bin 1

====

Test system: LXRa:RXRa (NR concentration 270 nM, RXRa partner concentration 90 nM)
Assay: PBM binding z-score (relative to random genomic background probes); higher = stronger binding; sequences stand for … in GC…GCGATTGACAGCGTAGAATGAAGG
Kind request: treat 3 as inclusive, so PBM binding z-score at 3 or higher is Satisfied, anything lower is Not satisfied.

I'd appreciate it if you could say whether `CCTTACGGCTCACTGACAGGTTATAGCATTTGGA` has PBM binding z-score at least equal to 3.
Not satisfied

Could you please find out whether `CCTAGCAGGCCAATCTGGATCACTCAAGGCTTGA` has PBM binding z-score that meets 3 or exceeds it?
Not satisfied

Is it the case that `CCTACTGGGCCAAAAAGGTCATTGACGCCGATAA` has PBM binding z-score reaching or exceeding 3?
Satisfied

Test whether the sequence `CCTACTGGCCCAAAAAGGTCATTGATGCCGATAA` records PBM binding z-score of 3 or higher.
Satisfied

PBM binding z-score >= 3 for `TTACTAAGGTGAAAGGTCGTTGATGCACGCCTTG` ?
Satisfied

Form field: PBM binding z-score at least 3? Entry: `ACTAGCAGGACAAGTTTGGGTCACTCAAACAAAG`
Not satisfied
